assay: Quantification of XP and XN in plasma and cortex by UPLC-MS with or without glucuronidase digestion; assay type: in vivo, mice; settings: C57BL/6J, mouse, cortex; without glucuronidase digestion; daily oral XP 30, XN 60 mg/kg body weight; mean ± SEM; read-out: CORTEX concentration, Non-glucuronidated
parameter_measured: concentration at 11 weeks
Respond with a number, then the unit of measure.

molecule_smiles: COc1cc(O)c(CC=C(C)C)c(O)c1C(=O)/C=C/c1ccc(O)cc1
parameter_measured: concentration at 11 weeks
measured_result: 59.7 ng/g

Next compound, concentration at 11 weeks to be filled in.
Exam item: Specify concentration at 11 weeks for `COc1cc(O)c(CC=C(C)C)c(O)c1-c1cc(-c2ccc(O)cc2)n(C)n1` and stop.
Marked response: 40.1 ng/g
